quantity.kind: melting point

>>> df
                                    compound     data_value
 0  COC(=O)c1cc2c(ccn2S(=O)(=O)c2ccccc2)c(-c2cccn2S(=O)(=O)c2ccccc2)n1  104 to 106 °C
 1  COC(=O)c1cc2c(c(-c3cc4ccccc4n3Cc3ccccc3)n1)c1ccccc1n2Cc1ccccc1  168 to 170 °C
 2  Cn1c(-c2nc(C(=O)OC(C)(C)C)cc3c2c2ccccc2n3C)cc2ccccc21 [18ac]  200 to 202 °C
 3  COC(=O)c1cc2oc3ccccc3c2c(-c2cc3ccccc3o2)n1  163 to 165 °C
 4  CC(C)(C)OC(=O)c1cc2oc3ccccc3c2c(-c2cc3ccccc3o2)n1  100 to 102 °C
 5  COC(=O)c1cc2c(c(-c3cc4cc(OC)ccc4n3C)n1)c1cc(OC)ccc1n2C  160 to 162 °C
 6  COC(=O)c1cc2c(ccn2S(=O)(=O)c2ccc(C)cc2)c(-c2cccn2S(=O)(=O)c2ccc(C)cc2)n1  120 to 122 °C
 7     CC(C)(C)OC(=O)c1cc2occc2c(-c2ccco2)n1    78 to 80 °C
 8  COC(=O)C1=Cc2c(c3ccccc3n2S(=O)(=O)c2ccc(C)cc2)C(c2cc3ccccc3n2S(=O)(=O)c2ccc(C)cc2)N1 (centres unmarked) [18fa]  205 to 207 °C
 9  COC(=O)c1cc2c(ccn2Cc2ccccc2)c(-c2cccn2Cc2ccccc2)n1  134 to 136 °C
10            COC(=O)c1cc2occc2c(-c2ccco2)n1    95 to 97 °C
